ENDPOINT_LABEL: melting point

In the examples that follow, each entry is paired with its recorded melting point.
COc1cc2c(=O)n(CCN(C)C)c3c4cc(N)ccc4ncc3c2cc1OC | 213 to 215 °C
COc1cc2c(=O)n(CCN(C)C)c3c4cc([N+](=O)[O-])ccc4ncc3c2cc1OC | 232 to 234 °C
COc1cc2c(=O)n(CCN(C)C)c3c4ccc(N)cc4ncc3c2cc1OC | 208 to 210 °C

Q. Query: melting point; subject: COc1cc2c(=O)n(CCN(C)C)c3c4cccc([N+](=O)[O-])c4ncc3c2cc1OC
A. 257 to 258 °C

Q. Query: melting point; subject: COc1cc2c(=O)n(CCN(C)C)c3c4ccc([N+](=O)[O-])cc4ncc3c2cc1OC
A. 214 to 217 °C

Q. Query: melting point; subject: COc1cc2c(=O)n(CCN(C)C)c3c(cnc4cccc(N)c43)c2cc1OC
A. 239 to 241 °C

Q. Query: melting point; subject: COc1cc2c(=O)n(CCN(C)C)c3c4cccc(N)c4ncc3c2cc1OC
A. 226 to 229 °C

Q. Query: melting point; subject: COc1cc2c(=O)n(CCN(C)C)c3c4cc([N+](=O)[O-])ccc4nnc3c2cc1OC [Compound 12a]
A. 262 to 264 °C (dec.)

Q. Query: melting point; subject: COc1cc2c(=O)n(CCN(C)C)c3c(cnc4cccc([N+](=O)[O-])c43)c2cc1OC
A. 194 to 195 °C

----------
- TEST_TARGET: human topoisomerase I (Homo sapiens)
- Construct: unnamed fusion partner (recombinant fusion protein, T7 expression system); made in house; host or cells: E. coli
- Sequence (P11387 1-765): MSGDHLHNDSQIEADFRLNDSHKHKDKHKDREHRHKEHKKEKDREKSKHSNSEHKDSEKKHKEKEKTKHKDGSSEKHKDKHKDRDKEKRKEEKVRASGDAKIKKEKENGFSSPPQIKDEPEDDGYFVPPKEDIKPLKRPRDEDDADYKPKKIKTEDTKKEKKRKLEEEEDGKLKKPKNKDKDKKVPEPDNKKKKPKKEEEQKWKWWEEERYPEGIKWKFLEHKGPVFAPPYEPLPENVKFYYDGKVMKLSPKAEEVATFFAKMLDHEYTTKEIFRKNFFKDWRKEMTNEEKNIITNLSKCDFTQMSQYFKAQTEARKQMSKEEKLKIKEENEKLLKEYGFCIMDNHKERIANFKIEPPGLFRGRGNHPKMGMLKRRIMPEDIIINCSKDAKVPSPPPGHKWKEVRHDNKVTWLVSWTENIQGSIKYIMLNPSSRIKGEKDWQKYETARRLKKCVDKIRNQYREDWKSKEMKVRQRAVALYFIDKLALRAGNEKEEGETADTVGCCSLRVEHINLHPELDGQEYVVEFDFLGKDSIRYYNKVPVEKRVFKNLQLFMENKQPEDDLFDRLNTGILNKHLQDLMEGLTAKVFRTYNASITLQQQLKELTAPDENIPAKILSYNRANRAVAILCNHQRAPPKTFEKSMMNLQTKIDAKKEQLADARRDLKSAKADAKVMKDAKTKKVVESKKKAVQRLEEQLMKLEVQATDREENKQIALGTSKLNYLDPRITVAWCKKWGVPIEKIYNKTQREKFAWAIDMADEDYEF
- TEST_NAME: Test A: topoisomerase I-mediated DNA cleavage assay
- Format: biochemical
- MEASUREMENT_CONTEXT: concentration relative to topotecan (=1) producing the same cleavage on plasmid DNA in presence of human TOP1
ENDPOINT_LABEL: TOP1-mediated DNA Cleavage (REC, relative effective concentration)
// return a plain number; no unit text

CC[C@@]1(O)C(=O)OCc2c1cc1n(c2=O)Cc2cc3c(CN(C)C)c(O)ccc3nc2-1 [Topotecan, reference compound] | 1

Q. Query: TOP1-mediated DNA Cleavage (REC, relative effective concentration); subject: COc1cc2c(=O)n(CCN(C)C)c3c4ccc([N+](=O)[O-])cc4ncc3c2cc1OC [Compound 3b]
A. 6

Q. Query: TOP1-mediated DNA Cleavage (REC, relative effective concentration); subject: COc1cc2c(=O)n(CCN(C)C)c3c4cc([N+](=O)[O-])ccc4ncc3c2cc1OC [Compound 3c]
A. 2

Q. Query: TOP1-mediated DNA Cleavage (REC, relative effective concentration); subject: COc1cc2c(=O)n(CCN(C)C)c3c4ccccc4ncc3c2cc1OC [Compound 5, reference compound]
A. 10

Q. Query: TOP1-mediated DNA Cleavage (REC, relative effective concentration); subject: COc1cc2c(=O)n(CCN(C)C)c3c4cccc([N+](=O)[O-])c4ncc3c2cc1OC [Compound 3a]
A. 9

Q. Query: TOP1-mediated DNA Cleavage (REC, relative effective concentration); subject: COc1cc2c(=O)n(CCN(C)C)c3c4cc(N)ccc4ncc3c2cc1OC [Compound 4c]
A. 6

Q. Query: TOP1-mediated DNA Cleavage (REC, relative effective concentration); subject: COc1cc2c(=O)n(CCN(C)C)c3c4cccc(N)c4ncc3c2cc1OC [Compound 4a]
A. 100

Q. Query: TOP1-mediated DNA Cleavage (REC, relative effective concentration); subject: COc1cc2c(=O)n(CCN(C)C)c3c4ccc(N)cc4ncc3c2cc1OC [Compound 4b]
A. 12
